Provenance of the data: PubChem BioAssay

# Tested on: Chordin-like protein 2 (CHRDL2)
# Test: CHRDL2 small-molecule binders, primary screen, biochemical, small-molecule microarray, 635 nm fluorescence (AID 1126);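 also: printed compound slides probed with Chrdl2 protein at 4 µg/mL for 1 h at 4 C; score merges 667 nm emission intensity with signal to noise over three replicate slides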
# Applied conditions: small-molecule microarray binding, fluorescence 635 nm; higher = more signal
Categories are defined by ranges of composite z-score, namely zone 1 = under 0.2, zone 2 = from 0.2 up to 0.7, zone 3 = 0.7 and over

Which class does C[C@H]1CC[C@H]2C(=O)O[C@H](COc3ccc(C(C)(C)C)cc3)CN2[C@@H]1c1ccc(Br)cc1 fall in?
zone 1

Which class does C[n+]1ccc(-c2ccc(CO)cc2)cc1 fall in?
zone 3

Which class does C=CC[C@@H]1C=C[C@H](ON=C[C@@H](C)[C@H](OCc2ccccc2)C(C)C)[C@@H](CO)O1 fall in?
zone 1

Which class does C[C@@H]1NC(=O)[C@@H](C)COC(=O)[C@H](C)NC(=O)[C@@H](C)COC1=O fall in?
zone 2

Which class does COc1cccc([C@H]2Oc3ccc(OC)cc3C(=NO[C@@H]3O[C@H](COC(C)=O)[C@@H](OC(C)=O)[C@H](OC(C)=O)[C@H]3OC(C)=O)[C@@H]2O)c1 fall in?
zone 1

Which class does COc1ccc(COC(=O)NN=C2C[C@@H](O)[C@@H](O)[C@@H]3[C@@H]4C(=O)N(c5cccc(Oc6ccccc6)c5)C(=O)[C@@H]4CC[C@@H]23)cc1 fall in?
zone 1

Which class does Cc1cc2c(nc1C)CCCN2CC(O)CN1CCCc2nc(C)c(C)cc21 fall in?
zone 2

Which class does CC[C@@H](c1ccccc1)n1c(=O)n2n(c1=O)[C@H]1[C@H](O)[C@@H]3O[C@@H]3C(=NOC[C@@H](O)COCc3ccco3)[C@H]1CC2 fall in?
zone 3

Which class does C[C@@H]1CC[C@H]2C(=O)O[C@@H](COc3ccc(C(C)(C)C)cc3)CN2[C@@H]1c1ccc(Br)cc1 fall in?
zone 1

Which class does CO[C@@H]1COC(=O)[C@H](CCSC)NC(=O)CC=C[C@@H](C)COC(=O)[C@H](C)NC(=O)CC=C[C@H]1C fall in?
zone 3

Which class does COC(=O)CC=C[C@@H](C)[C@@H](C=NOC[C@H]1O[C@H](c2ccccc2)C=C[C@@H]1Oc1ccc(OC)cc1)NS(=O)(=O)c1ccc(C)cc1 fall in?
zone 1

Which class does COC(=O)NCC=Cc1nc(CCCO)co1 fall in?
zone 3
